assayMethodText: qHTS for Inhibitors of Plasmodium falciparum (GB4) proliferation (AID 504315);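 note: 0% = DMSO vehicle and -100% = 0.29 µM artemisinin control; nearly all actives have a fitted effect of over 50% in size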
assayContext: P. falciparum GB4 in erythrocytes, SYBR Green DNA, 72 h; series mostly up to 6.7 µM
Records with an inconclusive call do not appear. The source made the active and inactive calls. Calls come from the whole dose curve; as a rule, active = well fitted inhibition curve with a large enough effect; inconclusive = small, poorly fitted or top-dose-only effect, or effect the other way; inactive = flat fitted curve, though single readings scatter.
Write down one outcome, taken from active, inactive

{"molecule": "CCN(CC)CCCN1C=C2C(=O)C(C)(OC(=O)CCC(=O)OC)C(=O)C(Br)=C2C=C1c1ccc(OC)cc1 (stereo not drawn)", "assignedCategory": "inactive"}
{"molecule": "COCOc1c2c(c(OCOC)c3c(OCOC)cccc13)C(=NNS(C)(=O)=O)C1=C2CCCC1", "assignedCategory": "inactive"}
{"molecule": "COC(=O)C1=C(C(=O)OC)[C@@H]2N(C)c3ccccc3[C@@]23C[C@@H](C(=O)OC)N(S(=O)(=O)c2c(C)noc2C)C3=N1", "assignedCategory": "inactive"}
{"molecule": "CC#CCN1c2ccccc2[C@]23CCC(=O)N(CCCOC(C)C)C2=NC(C(=O)OC)=C(C(=O)OC)[C@H]13", "assignedCategory": "inactive"}

Given CCN1C(=O)N[C@H](c2ccc(Br)cc2)C(C(=O)OC)=C1C , state the outcome it received in this test.
inactive

Answer briefly: the call reported for CCCCc1nc2c(c3c1C[C@H](C)OC3)CN(C(=O)Cc1cccc(OC)c1)CC2 in this assay.
inactive

* * *

targetOrSystem: Tumor susceptibility gene 101 protein (Homo sapiens) (UniProt Q99816)
Sequence (Q99816 whole entry, looked up): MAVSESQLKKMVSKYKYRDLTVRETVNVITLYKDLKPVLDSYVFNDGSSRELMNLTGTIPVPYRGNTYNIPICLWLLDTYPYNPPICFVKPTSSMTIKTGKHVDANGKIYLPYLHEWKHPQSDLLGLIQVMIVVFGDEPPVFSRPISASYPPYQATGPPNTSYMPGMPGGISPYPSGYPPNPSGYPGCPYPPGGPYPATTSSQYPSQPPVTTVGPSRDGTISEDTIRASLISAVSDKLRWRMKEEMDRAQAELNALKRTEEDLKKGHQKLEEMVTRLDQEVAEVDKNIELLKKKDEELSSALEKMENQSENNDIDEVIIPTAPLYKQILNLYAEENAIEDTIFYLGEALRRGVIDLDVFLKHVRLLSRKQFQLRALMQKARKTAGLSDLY
assayMethodText: qHTS Assay for Iinhibitors of HIV-1 Budding by Blocking the Interaction of PTAP/TSG101: Hit Validation (AID 651600); note: nearly all actives have a fitted effect of over 70% in size
assayContext: PTAP peptide/TSG101 UEV interaction, biochemical assay; series mostly up to 57.5 µM
Records with an inconclusive call do not appear. Calls of active or inactive are those of the source. Calls come from the whole dose curve; as a rule, active = well fitted inhibition curve with a large enough effect; inconclusive = small, poorly fitted or top-dose-only effect; inactive = no such curve, though single readings can be large or run the other way.
The categories you may choose from are y (active), n (inactive)

The examples below pair each entry with its known result.
{"compound": "O=C1Nc2ccc(F)cc2C12Nc1ccccc1-c1nnc(SCc3ccccc3F)nc1O2 (stereo not given)", "assignedCategory": "n"}
{"compound": "O=C1c2cccc3c([N+](=O)[O-])ccc(c23)C(=O)N1c1ccc(Cl)cn1", "assignedCategory": "n"}
{"compound": "CCN(CC)C(=O)CSc1nnc2nnc3cc(OC)ccc3n12", "assignedCategory": "y"}
{"compound": "COc1ccc(OC)c(NC(=O)CCN2CC(C)CC(C)C2)c1 (stereo not given)", "assignedCategory": "n"}

Note: attention shifts to another entry.
Please share the test call associated with COc1cc(OC)c(N(C)C(=O)c2sc3nc4n(c(=O)c3c2C)CCCC4)cc1Cl .
n

* * *

assayMethodText: qHTS assay for small molecule antagonists of peroxisome proliferator-activated receptor delta signaling (AID 588535);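 note: cells co-treated with a PPAR-delta agonist as stimulator during compound exposure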
assayContext: HEK293T PPARd-UAS-bla, beta-lactamase FRET ratio, 18 h; 460 nm channel
Inconclusive results are not listed.
quantityKind: max response
Answer with the figure and its unit, nothing else.

Please review the entries below; each comes with its answer.
{"compound": "CCCCCCCCCCCCCCC(=O)OC", "max response": "-7.18%"}
{"compound": "O=C(OCC1CCC2OC2C1)C1CCC2OC2C1 (stereo not given)", "max response": "-2.67%"}
{"compound": "CCCCCCCC/C=C\\CCCCCCCCCCCCC", "max response": "20.5%"}
{"compound": "CCCCCCCCCC(=O)OC", "max response": "-5.35%"}
{"compound": "O=C(Cl)c1cc(Cl)cc(Cl)c1", "max response": "16%"}

Return reported max response; argument: CCCCCCCCCCCCCCN
-7.23%

Query (compound): CCCCOCCOCCOCCO ; field requested: max response
-4.48%

Find the recorded max response belonging to CO[Si](OC)(OC)c1ccccc1 and report it.
44.5%

Need max response of CN=C(N)NCC1CCOC1 (stereo not given) , thanks.
42%

Return reported max response; argument: O=S(c1ccc(Cl)cc1)c1cc(Cl)c(Cl)cc1Cl (stereo not given)
14.8%

# input compound: C=C(C)C(=O)OCC(CC)(COC(=O)C(=C)C)COC(=O)C(=C)C ; wanted: its max response
9.24%

Requested field: max response. Item: NCCCCCCCCCCCC(=O)O
20.5%

Recorded max response of O=c1n(CCO)c(=O)n(CCO)c(=O)n1CCO , please.
3.67%

For c1ccc(OCCOc2ccccc2)cc1 , what is its reported max response?
9.85%

Form field: reported max response of C[Si]1(C)O[Si](C)(C)O[Si](C)(C)O1
-11.7%

* * *

Tested on: AS120
assayMethodText: qHTS profiling for inhibitors of Plasmodium falciparum proliferation (AID 504749); note: nearly all actives have a fitted effect of over 60% in size; note: potency is the fitted concentration of half-maximal effect
assayContext: P. falciparum in erythrocytes, SYBR Green DNA, 72 h; series mostly up to 28.7 µM
Inconclusive results are not listed. Calls of active or inactive are those of the source. Calls follow the shape of the dose curve; as a rule, active = well fitted inhibition curve with a large enough effect; inconclusive = small, poorly fitted or top-dose-only effect; inactive = flat fitted curve, though single readings scatter. Numbered stars: 1 amine (or outer) side, 2 acyl side, 3 side chain; on linkers, the order of the positions; unused ones are H or OH. Bridge positions count the residues as written; N and C are the ends. Square brackets hold non-standard residues; d marks the D form. Peptide text beside a SMILES is read from it. * marks the point of attachment. ξ: configuration not given here. ΔAla(Z-3-ureido) = NC(=O)N/C=C(\N)C(=O)O; X1 = NC1=NCCC(C(N[*:1])C(=O)[*:2])N1; ξβ3hOrn = NCCCC(N)CC(=O)*; Orn = NCCC[CH](N)C(=O)O; Dap = NC[CH](N)C(=O)O

{"compound": "CC(=O)OCC1=C(C(=O)O)N2C(=O)C(NC(=O)Cc3ccccc3)C2SC1 (centres undefined)", "Potency": "inactive"}
{"compound": "NCCCC(N)CC(=O)NCC1NC(=O)C(CO)NC(=O)C(N)CNC(=O)C(C2CCN=C(N)N2)NC(=O)/C(=C/NC(N)=O)NC1=O (stereo not drawn) (H-[Dap]S[Dap](ξβ3hOrn)[ΔAla(Z-3-ureido)][X1]; lactam 1-C; configuration not given here)", "Potency": "inactive"}
{"compound": "CC(C)C(NC(=O)C(CC(=O)O)NC(=O)C(CCCCN)NC(=O)C(N)CCCN=C(N)N)C(=O)NC(Cc1ccc(O)cc1)C(=O)O (centres undefined) (H-RKDVY-OH; configuration not given here)", "Potency": "inactive"}
{"compound": "CC(C)CC1NC(=O)C(CCCN)NC(=O)C(C(C)C)NC(=O)C2CCCN2C(=O)C(Cc2ccccc2)NC(=O)C(CC(C)C)NC(=O)C(CCCN)NC(=O)C(C(C)C)NC(=O)C2CCCN2C(=O)C(Cc2ccccc2)NC1=O (centres undefined) (cyclo(FPV[Orn]LFPV[Orn]L); configuration not given here)", "Potency": "2.8 nM (active)"}

* * *

System: CP262
assayMethodText: qHTS profiling for inhibitors of Plasmodium falciparum proliferation (AID 504749); note: nearly all actives have a fitted effect of over 60% in size
assayContext: P. falciparum in erythrocytes, SYBR Green DNA, 72 h; series mostly up to 28.7 µM
Inconclusive results are not listed. Activity calls are given as the source filed them. Calls come from the whole dose curve; as a rule, active = well fitted inhibition curve with a large enough effect; inconclusive = small, poorly fitted or top-dose-only effect; inactive = flat fitted curve, though single readings scatter. Numbered stars: 1 amine (or outer) side, 2 acyl side, 3 side chain; on linkers, the order of the positions; unused ones are H or OH. Bridge positions count the residues as written; N and C are the ends. Square brackets hold non-standard residues; d marks the D form. Peptide text beside a SMILES is read from it. * marks the point of attachment. ξ: configuration not given here. ΔAla(Z-3-ureido) = NC(=O)N/C=C(\N)C(=O)O; X2 = NC1=NC(O)CC(C(N[*:1])C(=O)[*:2])N1; ξβ3hOrn = NCCCC(N)CC(=O)*; Dap = NC[CH](N)C(=O)O
Log the outcome using a class from active, inactive

{"compound": "NCCCC(N)CC(=O)NC1CNC(=O)C(C2CC(O)N=C(N)N2)NC(=O)/C(=C/NC(N)=O)NC(=O)C(CO)NC(=O)C(CO)NC1=O (stereo not drawn) (ξβ3hOrn-[Dap]SS[ΔAla(Z-3-ureido)][X2]; lactam 1-C; configuration not given here)", "assignedCategory": "inactive"}
{"compound": "CC(C)C(NC(=O)C(CC(=O)O)NC(=O)C(CCCCN)NC(=O)C(N)CCCN=C(N)N)C(=O)NC(Cc1ccc(O)cc1)C(=O)O (centres undefined) (H-RKDVY-OH; configuration not given here)", "assignedCategory": "inactive"}
{"compound": "O=C(OCC1OC(OC(=O)c2cc(O)c(O)c(OC(=O)c3cc(O)c(O)c(O)c3)c2)[C@@H](OC(=O)c2cc(O)c(O)c(OC(=O)c3cc(O)c(O)c(O)c3)c2)C(OC(=O)c2cc(O)c(O)c(OC(=O)c3cc(O)c(O)c(O)c3)c2)C1OC(=O)c1cc(O)c(O)c(OC(=O)c2cc(O)c(O)c(O)c2)c1)c1cc(O)c(O)c(OC(=O)c2cc(O)c(O)c(O)c2)c1 (some centres undefined)", "assignedCategory": "active"}

Call for entry CC1(C)C(/C=C/C=C/C=C/C=C2\N(CCCCS(=O)(=O)O)c3ccc4ccccc4c3C2(C)C)=[N+](CCCCS(=O)(=O)[O-])c2ccc3ccccc3c21 :
inactive

Attribution: PubChem BioAssay (NCATS)
